Quick reference: DC50 of the listed items.
Measured On: SMARCA2-HiBiT HeLa cells (protein which is expressed from the SMARCA2 gene) (Homo sapiens, UniProt P51531)
Construct: protein which is expressed from the SMARCA2 and SMARCA4 genes; host or cells: HeLa (SMARCA2-HiBiT engineered line)
Sequence (P51531 whole entry): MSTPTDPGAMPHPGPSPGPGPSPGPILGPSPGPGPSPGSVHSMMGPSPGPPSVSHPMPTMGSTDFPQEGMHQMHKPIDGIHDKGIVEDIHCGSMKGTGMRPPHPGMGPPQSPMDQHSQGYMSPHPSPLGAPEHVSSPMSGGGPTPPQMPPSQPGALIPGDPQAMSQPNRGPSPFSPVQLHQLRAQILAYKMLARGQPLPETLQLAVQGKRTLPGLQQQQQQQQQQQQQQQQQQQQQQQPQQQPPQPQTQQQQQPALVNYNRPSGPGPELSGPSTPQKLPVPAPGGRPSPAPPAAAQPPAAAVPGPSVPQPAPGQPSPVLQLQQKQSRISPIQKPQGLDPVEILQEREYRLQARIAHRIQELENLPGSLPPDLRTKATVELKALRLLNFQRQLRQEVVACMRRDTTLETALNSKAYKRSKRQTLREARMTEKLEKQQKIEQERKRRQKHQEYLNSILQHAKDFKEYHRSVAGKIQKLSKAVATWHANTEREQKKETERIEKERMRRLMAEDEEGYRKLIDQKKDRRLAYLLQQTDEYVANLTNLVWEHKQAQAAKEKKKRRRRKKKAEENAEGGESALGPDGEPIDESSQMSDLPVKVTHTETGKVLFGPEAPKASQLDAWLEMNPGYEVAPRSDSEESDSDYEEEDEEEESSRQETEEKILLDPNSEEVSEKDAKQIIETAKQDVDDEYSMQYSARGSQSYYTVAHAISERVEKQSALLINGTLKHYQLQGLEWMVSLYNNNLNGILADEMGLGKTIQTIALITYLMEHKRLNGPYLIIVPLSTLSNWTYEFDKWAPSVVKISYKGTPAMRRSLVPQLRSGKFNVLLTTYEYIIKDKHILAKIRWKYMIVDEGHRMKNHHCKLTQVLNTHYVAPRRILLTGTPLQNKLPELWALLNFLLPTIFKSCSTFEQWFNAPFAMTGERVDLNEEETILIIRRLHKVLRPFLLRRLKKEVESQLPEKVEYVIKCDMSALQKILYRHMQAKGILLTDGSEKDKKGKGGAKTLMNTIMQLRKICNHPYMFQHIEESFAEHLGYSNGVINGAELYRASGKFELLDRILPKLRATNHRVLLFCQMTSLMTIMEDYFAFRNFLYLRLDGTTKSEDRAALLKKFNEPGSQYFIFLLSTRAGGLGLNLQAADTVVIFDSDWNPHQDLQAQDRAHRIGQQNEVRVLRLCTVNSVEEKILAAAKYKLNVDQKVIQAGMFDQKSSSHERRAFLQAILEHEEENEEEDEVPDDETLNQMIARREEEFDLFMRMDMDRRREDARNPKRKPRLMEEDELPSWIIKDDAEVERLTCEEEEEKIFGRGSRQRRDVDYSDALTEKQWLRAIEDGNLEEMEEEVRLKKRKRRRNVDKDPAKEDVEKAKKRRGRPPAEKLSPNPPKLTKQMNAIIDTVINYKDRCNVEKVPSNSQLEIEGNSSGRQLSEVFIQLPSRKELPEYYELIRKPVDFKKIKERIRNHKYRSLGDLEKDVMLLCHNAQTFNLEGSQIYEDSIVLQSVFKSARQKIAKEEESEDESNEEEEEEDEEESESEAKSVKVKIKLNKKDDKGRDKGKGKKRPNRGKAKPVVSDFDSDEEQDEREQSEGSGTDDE
Protocol Summary: SMARCA2 degradation assay (HiBiT-fusion HeLa cell line, 24 h, luminescence)
Assay type: cell-based
Readout Name: DC50

Compound Structure String | Measurement
C[C@@H]1CCN(c2cc(-c3ccccc3O)nnc2N)CCN1c1ccc(C#N)c(C#CCN2CC(F)(F)C2)n1 | 50 to 500 nM
Nc1nnc(-c2ccccc2O)cc1N1CCCN(c2ccnc(C#CCN3CCn4c(nnc4C(F)(F)F)C3)n2)CC1 | 500 to 5000 nM
C[C@@H]1CCN(c2cc(-c3ccccc3O)nnc2N)CCN1c1ccnc(C#CCn2cccn2)n1 | < 50 nM
CC1(NCC#Cc2nccc(N3CCCN(c4cc(-c5ccccc5O)nnc4N)CC3)n2)COC1 | 50 to 500 nM
C[C@@H]1CCN(c2cc(-c3ccccc3O)nnc2N)CCN1c1ccc(C#N)c(C#CCN(C)C)n1 | < 50 nM
Nc1nnc(-c2ccccc2O)cc1N1CCN(c2ccnc(C#CCNC(=O)c3cc4ccc(F)cc4o3)n2)CC1 | 50 to 500 nM
C[C@H]1CN(c2cc(-c3ccccc3O)nnc2N)[C@@H](C)CN1c1ccnc(C#CCNC(=O)c2cc3ncccn3n2)n1 | 50 to 500 nM
